Data origin: the supplement of paper PMC11208160

- assay info: recombinant barcode read abundance after kanamycin selection (control-corrected) (log10(CPM+1)); higher = more efficient recombination; sequences stand for … in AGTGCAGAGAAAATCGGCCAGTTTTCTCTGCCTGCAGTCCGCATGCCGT…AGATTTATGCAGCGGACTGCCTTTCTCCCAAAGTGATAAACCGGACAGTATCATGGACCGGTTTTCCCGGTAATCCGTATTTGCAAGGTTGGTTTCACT; site = the 11-nt target;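 further: IS621 recombinase and bridge RNA in Escherichia coli cells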
Is recombinant barcode read abundance (log10) at least 0.4? Then y. If not, n.

### Prompt Could you please find out whether CTGGTCCCTTGGGTTCTAACCTGTTGCGG (site CTGCTCCCTCC) has recombinant barcode read abundance (log10) that meets 0.4 or exceeds it?
### Response n

### Prompt Could you please find out whether GTCGTCGCTTGGGTTCTAACCTGTTGCCT (site GTCGTCTCTAG) has recombinant barcode read abundance (log10) that meets 0.4 or exceeds it?
### Response n
